Measured kon, listed per entry.
Target: T1, Cyno RGMa-His (cynomolgus monkey, UniProt Q9N0A6 54-431, limits assumed)
T1 construct: also called cynomolgus (cyno) monkey RGMa (BIAcore); not shown: His tag
T1 sequence (looked up): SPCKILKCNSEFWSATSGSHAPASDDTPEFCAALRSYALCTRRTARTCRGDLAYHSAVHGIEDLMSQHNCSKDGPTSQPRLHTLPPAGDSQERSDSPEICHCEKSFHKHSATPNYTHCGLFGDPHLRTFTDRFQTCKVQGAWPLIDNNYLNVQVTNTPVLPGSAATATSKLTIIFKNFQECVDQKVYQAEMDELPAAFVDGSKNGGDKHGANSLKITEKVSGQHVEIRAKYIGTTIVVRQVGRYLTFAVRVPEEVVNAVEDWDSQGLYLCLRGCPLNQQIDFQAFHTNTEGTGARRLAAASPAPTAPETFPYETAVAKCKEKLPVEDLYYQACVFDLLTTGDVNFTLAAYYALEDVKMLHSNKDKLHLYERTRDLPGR
Assay: BIAcore
Give the value, in units of M⁻¹ s⁻¹, as a plain number.

Examples with answers:
AE12-1-H (antibody, V domains shown, AE12-1 variant; IgG) VH: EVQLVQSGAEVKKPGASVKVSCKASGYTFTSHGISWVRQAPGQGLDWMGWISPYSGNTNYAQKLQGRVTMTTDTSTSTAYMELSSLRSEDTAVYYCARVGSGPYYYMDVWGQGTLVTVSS VL: QSALTQPRSVSGSPGQSVTISCTGTSSSVGDSIYVSWYQQHPGKAPKLMLYDVTKRPSGVPDRFSGSKSGNTASLTISGLQAEDEADYYCHSYAGTDTLFGGGTKVTVL
47000
AE12-1-I (antibody, V domains shown, AE12-1 variant; IgG) VH: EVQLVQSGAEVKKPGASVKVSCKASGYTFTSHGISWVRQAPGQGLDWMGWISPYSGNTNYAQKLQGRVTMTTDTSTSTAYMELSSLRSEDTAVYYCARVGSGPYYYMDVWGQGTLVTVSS VL: QSALTQPRSVSGSPGQSVTISCTGTSSSVGDSIYVSWYQQHPGKAPKLMLYDVTKRPSGVPDRFSGSKSGNTASLTISGLQAEDEADYYCISYAGTDTLFGGGTKVTVL
99000
AE12-1 (antibody, V domains shown, lambda light chain) VH: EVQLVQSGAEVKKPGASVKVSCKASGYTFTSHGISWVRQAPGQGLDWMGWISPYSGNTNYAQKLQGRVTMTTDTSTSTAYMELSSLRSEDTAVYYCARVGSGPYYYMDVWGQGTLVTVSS VL: QSALTQPRSVSGSPGQSVTISCTGTSSSVGDSIYVSWYQQHPGKAPKLMLYDVTKRPSGVPDRFSGSKSGNTASLTISGLQAEDEADYYCCSYAGTDTLFGGGTKVTVL
190000
AE12-1-Y (antibody, V domains shown, AE12-1 variant; IgG) VH: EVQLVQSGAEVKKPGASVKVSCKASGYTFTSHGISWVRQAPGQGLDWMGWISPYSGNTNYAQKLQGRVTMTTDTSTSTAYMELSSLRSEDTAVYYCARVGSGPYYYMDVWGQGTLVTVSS VL: QSALTQPRSVSGSPGQSVTISCTGTSSSVGDSIYVSWYQQHPGKAPKLMLYDVTKRPSGVPDRFSGSKSGNTASLTISGLQAEDEADYYCYSYAGTDTLFGGGTKVTVL
40000

Now let's try a different one.
Looking up AE12-1-V (antibody, V domains shown, AE12-1 variant; read as AE12-1-V from the order of the variants; IgG) VH: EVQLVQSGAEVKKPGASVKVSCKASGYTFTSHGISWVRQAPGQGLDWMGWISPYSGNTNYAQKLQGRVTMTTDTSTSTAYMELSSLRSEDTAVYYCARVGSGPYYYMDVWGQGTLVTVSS VL: QSALTQPRSVSGSPGQSVTISCTGTSSSVGDSIYVSWYQQHPGKAPKLMLYDVTKRPSGVPDRFSGSKSGNTASLTISGLQAEDEADYYCVSYAGTDTLFGGGTKVTVL , I see its kon listed as 110000
